FYI, the data here is from patent US20250099420A1.

Test system: parental HEK cells
Assay: HEK parental Agonist Counterscreen Assay (non-transfected cells)
Assay type: cell-based
Conditions: HEK Agonist Activity section
Threshold rule: Lipophilic Efficiency (logD) greater than or equal to 2 is Condition met; below that, Condition not met.

{"columns": ["Compound", "Assigned Category"],
 "data": [
  ["COc1ccccc1CN1CCNC(=O)C1CC(=O)NCCCN1CCc2ccccc21 (stereo not drawn)", "Condition met"],
  ["Cc1ccc2c(CC(=O)NNC(=O)CC34CC5CC(CC(C5)C3)C4)coc2c1", "Condition not met"],
  ["O=C(Cn1ncc2c1-c1ccccc1OC2)Nc1ccc(CCO)cc1", "Condition met"],
  ["O=C(CSCc1cccc2ccccc12)Nc1c[nH]c(=O)[nH]c1=O", "Condition met"],
  ["C=C(CC1N=CC2=C1c1ccccc1CC2)NCc1ccc(C)cc1 (stereo not drawn)", "Condition met"],
  ["CC(C)C(C)(C#N)NC(=O)CSc1nnc(Cc2cccc3ccccc23)n1N (stereo not drawn)", "Condition met"],
  ["O=C(CCc1nc2cccnc2n1Cc1cccs1)NCc1ccc2c(c1)OCO2", "Condition not met"],
  ["CC(NC(=O)CN1CCN(Cc2ccc(Cl)cc2)C1=O)c1ccccc1 (stereo not drawn)", "Condition met"],
  ["O=C(Cn1ncn2c(cc3sccc32)c1=O)NCCc1ccc(Cl)cc1", "Condition met"],
  ["Cn1c(CCc2ccc(F)cc2F)nnc1C1=C(O)N=C2CC=CC21 (stereo not drawn)", "Condition not met"],
  ["CCCCC(O)CCNC(=O)C1CC(=O)N(CCc2ccc(C)cc2)C1 (stereo not drawn)", "Condition met"],
  ["Cc1nn(-c2ccccc2)nc1C(=O)NNC(=O)CSCc1cccc2ccccc12", "Condition not met"],
  ["CCCCN(C)C(=O)CCC(=O)NNC1Cc2ccccc2C2=CC(C)=CC21 (stereo not drawn)", "Condition met"],
  ["COc1cc(C(=O)NNC(=O)CSc2ccc(C)cc2)cc(OC)c1C", "Condition not met"],
  ["CCOc1ccc(C(=O)NCCc2ccc(F)cc2)cc1OCC", "Condition not met"],
  ["O=C1N2CN(Cc3ccccc3)CN3C(=O)N4CN(Cc5ccccc5)CN1C4C23 (stereo not drawn)", "Condition met"],
  ["CCOC(=O)C1CCN(C(=O)C2CC(Cc3cccc4ccccc34)=NO2)CC1 (stereo not drawn)", "Condition not met"],
  ["CCCCC(=O)OCC(=O)NCc1ccc(C)cc1", "Condition met"],
  ["CCOC(=O)c1cccc(NC(=O)Cc2cccc3ccccc23)c1", "Condition not met"],
  ["Cc1cc(Br)ccc1OCC(=O)NNC(=O)c1ccccc1C", "Condition not met"],
  ["COc1ccc(CCC(=O)Nc2ccc(-c3cn[nH]c3)c(OC)c2)cc1", "Condition not met"],
  ["Cc1cc(C)c2c(CC(=O)NNC(=O)COc3ccccc3)coc2c1", "Condition not met"],
  ["Cc1cc(NC(=O)Cn2ncc3c2-c2ccccc2OC3)no1", "Condition met"],
  ["CN(CCC(=O)NCC1Cc2cccc(-c3ccccn3)c2O1)C1CCS(=O)(=O)C1 (stereo not drawn)", "Condition met"],
  ["O=C(CN1C(=O)NC2(CCc3ccccc3C2)C1=O)Nc1cccc2ccccc12 (stereo not drawn)", "Condition not met"],
  ["CC(C)(C)n1c2c(c(=O)[nH]c1=O)C(NC(=O)CCC1CCCCC1)(C(F)(F)F)C(=O)N2 (stereo not drawn)", "Condition met"],
  ["C#CC1=C(CCCc2ccc(CC)cc2)CC(CCc2ccccc2CC)=C1", "Condition not met"],
  ["O=C(NCCn1ccc2ccccc21)c1cccc(Cl)c1", "Condition not met"],
  ["O=C(CN1CCN(Cc2ccc(F)cc2Cl)C1=O)NCc1ccccc1Cl", "Condition not met"],
  ["CCCC(=O)C1CCC(C(=O)CC2CCC(c3ccc(C(C)O)cc3)C2=O)CC1 (stereo not drawn)", "Condition met"],
  ["COc1cc(C(=O)NNC(=O)COc2ccc3ccccc3c2)cc(OC)c1OC", "Condition met"],
  ["CCOC(=O)C1C2C=CC3(CN(C(C)c4ccc(Br)cc4)C(=O)C13)O2 (stereo not drawn)", "Condition met"],
  ["Cc1cccnc1NC(=O)Cn1ncc2c1-c1ccccc1OC2", "Condition met"],
  ["COc1ccc(C(C)N2CC34C=CC(O3)C(C(=O)OCC(C)C)C4C2=O)cc1 (stereo not drawn)", "Condition met"]
]}
